Please respond with reported GI50 for every item in the list.
- Test system: NCI/ADR-RES ovarian
- assay overview: NCI tumour cell line growth inhibition, 48 h

Tell me the measured GI50 of O=C(O)c1ccc(C(=O)O)c(C(=O)O)c1.[NH-]C1CCCCC1[NH-].[Pt+2] , please. 3.56 µM

Another compound to look at: Cc1cc(C(O)(c2ccc(Nc3ccccc3)cc2)c2ccc(Nc3ccc(S(=O)(=O)O)cc3)cc2)ccc1N (stereo not drawn) 1.83 µM

Next: Cc1ccc(NC(=O)c2nc(S(C)(=O)=O)oc2-c2ccc(F)cc2)cc1Nc1ccc2ncn(C)c(=O)c2c1 3.14 µM

Same lookup for CC(C)OCc1cc(CN2CCN(c3cccc(Cl)c3)CC2)c(O)c2ncccc12 , please. 0.203 µM

And then NC(=O)CCc1ccccc1Oc1nccc(-c2c(-c3ccc(F)cc3)ncn2C2CCNCC2)n1 , what is it? > 25 µM

Repeat with COc1cc(/C=C/C(=O)c2ccc(F)cc2)ccc1OCCCCCOc1cc2c(cc1OC)C(=O)N1CCCC1C=N2 (stereo not drawn) 0.239 µM

Moving on to the next compound: NCCCNc1nc2ccc(Cl)cc2c2c(=O)c3cc(F)ccc3sc12 2.23 µM

Again, but for CN(CSc1ccc(Cl)cc1)c1ccc(CSc2ccc(Cl)cc2)cc1 8 µM

Follow-up entry: O=C(NS(=O)(=O)c1ccc(NC[C@H]2COCCO2)c([N+](=O)[O-])c1)c1ccc(N2CCN(CC3=C(c4ccc(Cl)cc4)CC4(CCC4)CC3)CC2)cc1Oc1cnc2[nH]ccc2c1 4.88 µM

Now give it for O=c1[nH]c(F)nc2c1ncn2C1OC(CO)C(O)C1O (stereo not drawn) too. > 100 µM

Now give it for CCCCCCc1cc2cc(-c3csc(/C=C/c4ccccc4)n3)c(=O)oc2cc1O too. 4.53 µM

What do you get for COC(=O)[C@@H](C)C[C@H](Cc1ccccc1)NC(=O)c1csc([C@@H](C[C@H](C(C)C)N(C)C(=O)C2(NC(=O)[C@H]3CCCCN3C)CCC2)OC(C)=O)n1 ? 16.9 µM

Would you kindly repeat that for O=C(c1cccs1)c1nc2cc(Cl)ccc2[n+]([O-])c1C(F)(F)F ? > 100 µM
